Where do these numbers come from? They come from paper PMC4155600.

# system_name: T1, SpPot1 (Schizosaccharomyces pombe, UniProt O13988 1-555)
# T1 sequence: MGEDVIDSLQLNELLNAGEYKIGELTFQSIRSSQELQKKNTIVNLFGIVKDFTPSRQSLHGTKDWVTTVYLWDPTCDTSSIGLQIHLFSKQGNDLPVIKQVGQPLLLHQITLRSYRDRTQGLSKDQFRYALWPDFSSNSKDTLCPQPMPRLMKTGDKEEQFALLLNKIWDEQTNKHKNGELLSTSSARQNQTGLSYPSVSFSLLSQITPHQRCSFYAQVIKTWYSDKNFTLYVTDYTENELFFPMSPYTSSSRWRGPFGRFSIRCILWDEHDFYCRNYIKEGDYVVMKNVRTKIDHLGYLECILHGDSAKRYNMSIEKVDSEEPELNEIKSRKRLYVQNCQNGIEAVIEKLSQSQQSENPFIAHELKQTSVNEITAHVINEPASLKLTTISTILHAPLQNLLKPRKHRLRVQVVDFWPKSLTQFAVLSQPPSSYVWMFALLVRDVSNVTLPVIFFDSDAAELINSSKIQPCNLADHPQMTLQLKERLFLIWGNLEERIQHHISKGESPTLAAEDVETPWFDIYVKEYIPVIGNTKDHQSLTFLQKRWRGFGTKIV
# assay_explanation: filter binding
readout_name: Kd (nM)

binder: GGTTACGGTTAC (ssDNA) [12mer]
readout_name: Kd
readout_value: 0.1
